Experiment: growth inhibitors of anaerobic choline-fed gram-negatives, minimal medium, absorbance (AID 1963822)
Settings: Gram-negative bacterium anaerobic choline minimal medium, stronger effect = lower value
About 90 (0.2%) of roughly 55,000 compounds were called active. The entries come from a sample that favours actives as a whole.
quantity: z-score
Respond using a number only.

# annotated cases, reported z-score shown
molecule	endpoint-result
O=C(NCCc1cnc[nH]1)c1ccc(Cn2c(SCc3ccc(F)cc3)nc3cccnc32)cc1	-0.7
COc1ccccc1CNc1ncc2nc(-c3ccccc3)oc2n1	-0.72
CCC1Oc2cc(S(=O)(=O)N3CCCC(C(=O)N4CCc5ccccc54)C3)c(C)cc2NC1=O (stereo not given)	0.06

[ask] Query (molecule): `CCc1nc2ccccc2c(=O)n1Cc1noc(CN2C(=O)COc3ccccc32)n1` ; field requested: z-score
[reply] 0.03

[ask] Query (molecule): `CCCC(=O)Nc1cccc(OCc2cc(=O)n3ccccc3n2)c1` ; field requested: z-score
[reply] 0.39
